assay.system: Torsin-1A (Homo sapiens) (UniProt O14656)
Sequence (O14656 whole entry, looked up): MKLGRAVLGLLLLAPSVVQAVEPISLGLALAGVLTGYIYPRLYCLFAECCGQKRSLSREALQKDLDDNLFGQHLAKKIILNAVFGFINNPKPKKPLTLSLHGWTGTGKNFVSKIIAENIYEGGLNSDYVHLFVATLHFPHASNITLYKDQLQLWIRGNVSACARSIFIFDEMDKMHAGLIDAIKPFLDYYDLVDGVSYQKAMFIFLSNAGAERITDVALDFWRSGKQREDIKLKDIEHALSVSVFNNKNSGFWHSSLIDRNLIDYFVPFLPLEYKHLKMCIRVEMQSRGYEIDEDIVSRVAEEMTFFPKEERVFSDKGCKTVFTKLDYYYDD
method.notes: torsin A binders from cell lysate, primary screen, small-molecule microarray, wild-type, 635/667 nm (AID 1149)
test.settings: COS7 hTOR1A-WT lysate, 635 nm fluorescence, higher = more signal
Decision: composite z-score compared against 0.2; not below it gives satisfied, below it gives not satisfied.

Completed entries (count: 2):
| compound | assigned.class |
| --- | --- |
| C=C[C@H](C)[C@@H](O)c1ccc(O)c2ccccc12 | not satisfied |
| CC(C)(C)N1CC=CC23O[C@@H]4C=CCOC(=O)[C@@H]4[C@H]2C(=O)N(CCCCCO)[C@@H]3C1=O (stereo partly drawn) | not satisfied |

I'd appreciate it if you could say whether CCOC(=O)C[C@H]1[C@H](OC(=O)c2ccc(-c3ccccc3)cc2)[C@@H](NC(=O)Cc2ccc(OC)cc2)c2cc(OCCCO)ccc2N1C(=O)c1ccc2ccccc2n1 has composite z-score at least equal to 0.2.
satisfied

I'd appreciate it if you could say whether CO[C@H]1O[C@H](CO)[C@@H](OC(=O)Nc2ccc(Oc3ccccc3)cc2)[C@H](OC(=O)Nc2ccccc2)[C@H]1OC(=O)Nc1ccccc1 has composite z-score at least equal to 0.2.
satisfied

I'd appreciate it if you could say whether [N-]=[N+]=NCc1ccccc1[C@@H]1OC(c2ccc(OCCCO)cc2)=N[C@]1(Cc1ccccc1N=[N+]=[N-])C(=O)NCc1ccccc1 has composite z-score at least equal to 0.2.
satisfied

I'd appreciate it if you could say whether CN(C)C(=O)[C@@]1(CCC(=O)OC(C)(C)C)N=C(c2ccc(OCCCO)cc2)O[C@H]1c1ccccc1 has composite z-score at least equal to 0.2.
satisfied

I'd appreciate it if you could say whether CCC(CC)C(O)C1C=CC2C(=O)N(c3ccccc3)C(=O)C2N1Nc1ccc(C#N)cc1 (stereo not drawn) has composite z-score at least equal to 0.2.
satisfied

I'd appreciate it if you could say whether COc1ccc(C#Cc2ccc3c(c2)[C@]2(C(=O)N3)[C@H](C(=O)NC[C@H](O)c3ccccc3)[C@H]3C(=O)O[C@H](c4ccccc4)[C@H](c4ccccc4)N3[C@@H]2c2ccccc2OCCO)cc1 has composite z-score at least equal to 0.2.
not satisfied

----------
method.notes: yeast growth modulation, basal conditions, primary screen, YJM789 clinical isolate, OD600, 24 h (AID 1089);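 also: growth of clinical yeast isolate S. cerevisiae YJM 789 seeded 1000 cells per well; test concentration not given here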
test.settings: S. cerevisiae YJM789 growth, called active from +8 up or from −8 down
Active and inactive are the calls of the source.
Just give me one of these, please: 1 for active, 0 for inactive

Completed entries (count: 3):
| molecule | assigned.class |
| --- | --- |
| Cc1ccc(S[C@]2(C(=O)NC3CC3)CC(=O)N(Cc3ccccc3)[C@@H]2c2ccc(CO)cc2)cc1 | 0 |
| COC(=O)C1=CC(CCCO)=CC(C2CC2)N(Cc2sc3ccccc3c2Cl)C=C1C(=O)OC (centres undefined) | 0 |
| O=C1OCC=C[C@H]2OC34C=CCN(c5ccc(Cl)cc5)C(=O)[C@H]3N(CCCCCCO)C(=O)[C@@H]4[C@@H]12 (some centres undefined) | 0 |

Lab log entry: CCOC(=O)C1=CCC(c2ccc(C#N)cc2)N(S(=O)(=O)c2ccc(C)cc2)C1 (centres undefined) — outcome as called in the assay?
0

Lab log entry: COc1cc2c(cc1OC)CN(C(=O)[C@@H]1[C@H]3C(=O)O[C@H](c4ccccc4)[C@H](c4ccccc4)N3[C@H](c3ccccc3OCCO)[C@@]13C(=O)Nc1ccc(C#CCNC(N)=O)cc13)CC2 — outcome as called in the assay?
0

Lab log entry: COc1ccc(CCN2C(=O)[C@@]3(Cc4ccccc42)c2ccccc2C(=O)N(Cc2ccccc2Cl)[C@H]3c2ccc(CO)cc2)cc1 — outcome as called in the assay?
0

Lab log entry: C[C@]1(C(=O)NCc2ccccc2)c2ccccc2C(=O)N(Cc2cc(F)cc(C(F)(F)F)c2)[C@H]1c1ccc(CO)cc1 — outcome as called in the assay?
0

Lab log entry: O=C1O[C@H](c2ccccc2)[C@H](c2ccccc2)N2[C@H]1[C@@H](C(=O)O)[C@]1(C(=O)Nc3ccc(C#CC4=CCCCC4)cc31)[C@H]2c1ccc(OCCO)cc1 — outcome as called in the assay?
0

Lab log entry: COCCCNC(=O)[C@@]1(C)c2ccccc2C(=O)N(Cc2cc(C(F)(F)F)cc(C(F)(F)F)c2)[C@H]1c1ccc(CO)cc1 — outcome as called in the assay?
0

Lab log entry: CCOC(=O)C[C@H]1[C@H](OC(=O)c2ccc(-c3ccccc3)cc2)[C@@H](NC(=O)Cc2ccc(OC)cc2)c2cc(OCCCO)ccc2N1C(=O)c1ccc2ccccc2n1 — outcome as called in the assay?
0

Lab log entry: C=CCOC(=O)[C@H]1[C@@H]2C(=O)O[C@@H](c3ccccc3)[C@@H](c3ccccc3)N2[C@@H](c2ccc(OCCOC(=O)[C@@H]3C[C@@H]4C(=O)NCC(=O)N4[C@@H]3c3ccc(O)cc3)cc2)[C@]12C(=O)Nc1ccccc12 — outcome as called in the assay?
0

Lab log entry: CCOC(=O)C1=CC[C@@H](c2ccccc2Cl)N(S(=O)(=O)c2ccc(C)cc2)C1 — outcome as called in the assay?
0

Lab log entry: Cc1c(NC(=O)CC#N)c(=O)n(-c2ccccc2)n1C — outcome as called in the assay?
0

Lab log entry: CC(C)NC(=O)[C@@H]1c2ccccc2C(=O)N(Cc2ccccc2Cl)[C@H]1c1ccc(CO)cc1 — outcome as called in the assay?
0

Lab log entry: [N-]=[N+]=Nc1ccccc1C[C@]1(C(=O)NCCN2CCOCC2)N=C(c2ccc(OCCCO)cc2)O[C@H]1c1ccccc1 — outcome as called in the assay?
0

Lab log entry: COCC(=C=CC[C@@H](O)c1ccc(CO)o1)CCO — outcome as called in the assay?
0

Lab log entry: O=C1OCCC=C[C@H]2OC34C=CCN(Cc5ccccc5)C(=O)[C@H]3N(CCCCCO)C(=O)[C@@H]4C12 (some centres undefined) — outcome as called in the assay?
0

----------
method.notes: fission yeast growth modulation, primary screen, strain 972, OD600, 24 h, no modulator (AID 1090);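 also: basal condition with compound alone and no growth modifier present; test concentration not given here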
test.settings: S. pombe 972 growth, called active from +8 up or from −8 down
The source made the active and inactive calls.
Just give me one of these, please: active, inactive

Completed entries (count: 4):
| molecule | assigned.class |
| --- | --- |
| COc1cccc(C(=O)O[C@H]2CC[C@]3(C)C4=C(CCC3C2(C)C)[C@]2(C)CC[C@H]([C@H](C)CCCC(C)C)[C@@]2(C)CC4)c1 (some centres undefined) | inactive |
| Cc1ccc(F)cc1S(=O)(=O)N[C@@H]1CCN(Cc2ccc(-c3ccccc3)cc2)C1 | active |
| COCCOC(=O)N1C(=O)[C@@]2(c3cc(C#CCNC(N)=O)ccc31)[C@H](C(=O)N1CCN(c3ncccn3)CC1)[C@H]1C(=O)O[C@H](c3ccccc3)[C@H](c3ccccc3)N1[C@@H]2c1ccccc1OCCO | inactive |
| COCCOC(=O)N1C(=O)[C@@]2(c3cc(C#CCNC(N)=O)ccc31)[C@H](c1ccc(O)cc1)N1[C@H](c3ccccc3)[C@H](c3ccccc3)OC(=O)[C@H]1[C@@H]2C(=O)Nc1nc2ccccc2s1 | inactive |

Now turn to the next molecule.
Lab log entry: COC(=O)c1c(CC[C@@H](CO)NC(=O)N[C@@H](Cc2ccccc2)Cn2cc(C3(O)CCCCC3)nn2)oc(C(C)=O)c1C(=O)OC — outcome as called in the assay?
inactive

----------
assay.system: Focal adhesion kinase 1 (Homo sapiens)
method.notes: small-molecule microarray binders of FAK, primary screen, biochemical, 635/667 nm fluorescence, BSA, DTT (AID 1130);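 also: composite of spot emission at 667 nm and signal to noise over triplicate slides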
test.settings: PTK2 binding, 635 nm fluorescence, higher = more signal
Quick list: composite z-score per entry.
Would you mind answering with just the numeric figure?

The recorded composite z-score for CCOC(=O)C[C@H]1[C@H](OC(=O)Cc2ccc3c(c2)OCO3)[C@@H](NC(=O)C2CCCCC2)c2cc(OCCCO)ccc2N1C(=O)Cc1ccc(OC)cc1 is 0.673

The recorded composite z-score for CC=CC(O)C1C=CC2C(=O)N(c3ccccc3)C(=O)C2N1Nc1ccc(C(C)C)cc1 (stereo unspecified) is 0.777

The recorded composite z-score for C=CCNC(=O)[C@@H]1[C@H]2C(=O)O[C@H](c3ccccc3)[C@H](c3ccccc3)N2[C@H](c2ccc(OCCO)cc2)[C@@]12C(=O)Nc1ccccc12 is 0.102

The recorded composite z-score for C=CCOC(=O)[C@H]1[C@@H]2C(=O)O[C@@H](c3ccccc3)[C@@H](c3ccccc3)N2[C@@H](c2ccc(OCCOC(=O)[C@@H]3C[C@@H]4C(=O)NCC(=O)N4[C@@H]3c3ccc(O)cc3)cc2)[C@]12C(=O)Nc1ccccc12 is 0.564

The recorded composite z-score for COc1ccc(C(=O)Nc2cccc(CN3C(=O)[C@]4(O[C@H](CC(=O)N5CCC[C@H]5CO)[C@@H]([Si](C)(C)c5ccc(OC)cc5)[C@@H]4C)c4ccccc43)c2)cc1 is 0.407

The recorded composite z-score for C=CCNC(=O)[C@@H]1[C@H]2C(=O)O[C@H](c3ccccc3)[C@H](c3ccccc3)N2[C@H](c2ccc(O)cc2)[C@@]12C(=O)N(C(=O)OCCOC)c1ccccc12 is 0.419

The recorded composite z-score for C=CCOC(=O)[C@@H]1[C@H]2C(=O)O[C@H](c3ccccc3)[C@H](c3ccccc3)N2[C@H](c2ccc(OCCOC(=O)[C@@H]3C[C@@H]4C(=O)N[C@@H](Cc5ccccc5)C(=O)N4[C@@H]3c3cccc(OCCO)c3)cc2)[C@@]12C(=O)Nc1ccc(I)cc12 is 0.184

The recorded composite z-score for CC(C)(C)OC(=O)CC[C@@]1(C(=O)O)N=C(c2ccc(OCCCO)cc2)O[C@@H]1c1ccccc1N=[N+]=[N-] is 2.08

The recorded composite z-score for O=C1OCCC=C[C@H]2OC34C=CCN(Cc5ccccc5)C(=O)[C@H]3N(CCCCCO)C(=O)[C@@H]4C12 (stereo partly specified) is 1.95

The recorded composite z-score for COC(=O)[C@@]1(Cc2ccc(F)cc2)[C@H]2c3cc(C(=O)N4CCCC4)n(Cc4cccc5ccccc45)c3C[C@H]2CN1C(=O)c1ccccc1 is 2.08

The recorded composite z-score for CC(C)N1C(=O)C[C@@](C(=O)NCc2ccccc2)(c2ccc([N+](=O)[O-])cc2)[C@H]1c1ccc(CO)cc1 is 0.159

The recorded composite z-score for COc1ccc(C#Cc2ccc3c(c2)[C@]2(C(=O)N3)[C@H](c3ccc(O)cc3)N3[C@H](c4ccccc4)[C@H](c4ccccc4)OC(=O)[C@H]3[C@@H]2C(=O)NC[C@H](O)c2ccccc2)cc1 is 0.32
